assayed system: T1, 4H63-AA
T1 chain: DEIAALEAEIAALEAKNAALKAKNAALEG
measurement description: two-hybrid library CCmax;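 note: natural log of median RNA to DNA barcode read ratio; higher means stronger binding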
condition details: mean of both orientations
For each record, write down the corresponding interaction score.
The reply should be a number, written without any unit.

Would you kindly share the measured interaction score for DEIAALEAKNAALKAEIAALKAKNAALKG [4H464-AA] ?
-1.22

Would you kindly share the measured interaction score for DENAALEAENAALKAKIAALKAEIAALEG [4H1257-AA] ?
-1.72

Would you kindly share the measured interaction score for DEIAALEAKIAALKAKNAALKAENAALKG [4H380-AA] ?
-0.855

Would you kindly share the measured interaction score for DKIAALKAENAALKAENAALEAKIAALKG [4H2774-AA] ?
-1.37

Would you kindly share the measured interaction score for DKNAALEAKIAALKAENAALEAKIAALKG [4H3414-AA] ?
-0.187

Would you kindly share the measured interaction score for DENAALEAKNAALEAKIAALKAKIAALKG [4H1454-AA] ?
-0.402

Would you kindly share the measured interaction score for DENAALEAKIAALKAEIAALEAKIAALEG [4H1349-AA] ?
-0.724

Source listed as paper PMC10397247.
